# Assay procedure: Intravenous
# Assay conditions: human, plasma, iv, 6 mg, AUC0-96, 6.0 mg IV methadone HCl; control
Property measured: AUC(0-t) (ng·h/mL)

mol=CCC(=O)C(C[C@H](C)N(C)C)(c1ccccc1)c1ccccc1 observed_value=401

###

# Assay procedure: Intravenous
# Assay conditions: human, plasma, iv, 6 mg, AUC0-∞, 6.0 mg IV methadone HCl; steady-state ritonavir/indinavir
Property measured: AUC(0-inf) (ng·h/mL)

compound="CCC(=O)C(C[C@H](C)N(C)C)(c1ccccc1)c1ccccc1 [S-methadone]" property_measured=AUC(0-inf) observed_value=406

###

# Assay procedure: Oral
# Assay conditions: human, plasma, 11 mg, AUC0-∞, 11.0 mg oral methadone HCl, control
Property measured: AUC(0-inf) (ng·h/mL)

molecule="CCC(=O)C(C[C@H](C)N(C)C)(c1ccccc1)c1ccccc1 [S-methadone]" property_measured=AUC(0-inf) units_text=ng·h/mL observed_value=710

###

# Assay procedure: Intravenous
# Assay conditions: human, plasma, iv, 6 mg, AUC0-∞, 6.0 mg IV methadone HCl; acute ritonavir/indinavir
Property measured: AUC(0-inf) (ng·h/mL)

mol=CCC(=O)C(C[C@H](C)N(C)C)(c1ccccc1)c1ccccc1 units_text=ng·h/mL observed_value=390

###

# Assay procedure: Intravenous
# Assay conditions: human, plasma, iv, 6 mg, AUC0-96, 6.0 mg IV methadone HCl; steady-state ritonavir/indinavir
Property measured: AUC(0-t) (ng·h/mL)

mol=CCC(=O)C(C[C@H](C)N(C)C)(c1ccccc1)c1ccccc1 units_text=ng·h/mL observed_value=377

###

# Assay procedure: Oral
# Assay conditions: human, plasma, 11 mg, AUC0-96, 11.0 mg oral methadone HCl, control
Property measured: AUC(0-t)

molecule="CCC(=O)C(C[C@H](C)N(C)C)(c1ccccc1)c1ccccc1 [S-methadone]" property_measured=AUC(0-t) observed_value="639 ng·h/mL"

###

# Assay procedure: Intravenous
# Assay conditions: human, plasma, iv, 6 mg, AUC0-96, 6.0 mg IV methadone HCl; acute ritonavir/indinavir
Property measured: AUC(0-t) (ng·h/mL)

mol=CCC(=O)C(C[C@H](C)N(C)C)(c1ccccc1)c1ccccc1 units_text=ng·h/mL observed_value=353

###

# Assay procedure: Intravenous
# Assay conditions: human, plasma, iv, 6 mg, Cmax, 6.0 mg IV methadone HCl; acute ritonavir/indinavir
Property measured: Cmax (ng/mL)

mol=CCC(=O)C(C[C@H](C)N(C)C)(c1ccccc1)c1ccccc1 property_measured=Cmax units_text=ng/mL observed_value=69
